- Target or system: NF-kB p50/p50 homodimer (NFKB1) (Homo sapiens, UniProt P19838 P19838:1-433)
- Sequence (P19838 1-433, one chain of several): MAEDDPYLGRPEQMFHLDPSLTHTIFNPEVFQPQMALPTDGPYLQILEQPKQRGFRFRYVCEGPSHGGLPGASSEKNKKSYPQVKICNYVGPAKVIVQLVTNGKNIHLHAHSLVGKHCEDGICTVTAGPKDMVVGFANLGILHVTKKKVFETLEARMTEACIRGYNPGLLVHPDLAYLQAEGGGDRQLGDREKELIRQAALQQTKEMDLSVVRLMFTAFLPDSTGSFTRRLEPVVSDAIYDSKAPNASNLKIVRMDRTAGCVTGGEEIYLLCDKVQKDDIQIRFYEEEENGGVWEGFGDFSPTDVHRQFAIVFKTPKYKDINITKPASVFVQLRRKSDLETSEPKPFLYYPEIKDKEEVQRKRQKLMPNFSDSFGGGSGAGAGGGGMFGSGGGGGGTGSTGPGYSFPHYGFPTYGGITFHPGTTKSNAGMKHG
- Test: EMSA; competition vs 32P 113/114 probe
- Condition summary: protein: extract; tags: none; nuclear extract of LPS-stimulated THP-1 cells; chain copies: 2 (stated homodimer)
// values below are reported IC50
Property label: IC50

decoy 235 L-V (dsDNA) DNA 1: TCGGACTTTCCCTC DNA 2: GAGGGAAAGTCCGA ... 62.5 fold molar excess
153/154 H11/H11 (dsDNA, PS at the 11 3'-most linkages of each strand) DNA 1: AGTTGAGGACTTTCCAGGC DNA 2: GCCTGGAAAGTCCTCAACT ... 27 fold molar excess
decoy 259 E-Z' (dsDNA) DNA 1: TTGAGGACTTTCCAGGCTC DNA 2: GAGCCTGGAAAGTCCTCAA ... 85 fold molar excess
decoy 129 D-V (dsDNA) DNA 1: TCGGGATTTCCTC DNA 2: GAGGAAATCCCGA ... 37.5 fold molar excess
decoy 239 C-W' (dsDNA) DNA 1: CTCGGGGACTTTCCCTCA DNA 2: TGAGGGAAAGTCCCCGAG ... 9 fold molar excess
153/154 PO/H11 (dsDNA, strand 153 PO; strand 154 PS at the 11 3'-most linkages) DNA 1: AGTTGAGGACTTTCCAGGC DNA 2: GCCTGGAAAGTCCTCAACT ... 40 fold molar excess
decoy 207 L-Z (dsDNA) DNA 1: AGTTGAGGACTTTCCCAGGC DNA 2: GCCTGGGAAAGTCCTCAACT ... 45 fold molar excess
153/154 PS/PO (dsDNA, strand 153 full PS; strand 154 PO) DNA 1: AGTTGAGGACTTTCCAGGC DNA 2: GCCTGGAAAGTCCTCAACT ... 5 fold molar excess
decoy 121 A-V (dsDNA) DNA 1: TCGGGACTTTCCTC DNA 2: GAGGAAAGTCCCGA ... 34 fold molar excess
decoy 191 A-X (dsDNA) DNA 1: CTGGGACTTTCCTC DNA 2: GAGGAAAGTCCCAG ... 22.5 fold molar excess
